Here, each record is paired with measured EC50 data.
tested on: GLP1R (Homo sapiens)
Sequence (P43220 24-463): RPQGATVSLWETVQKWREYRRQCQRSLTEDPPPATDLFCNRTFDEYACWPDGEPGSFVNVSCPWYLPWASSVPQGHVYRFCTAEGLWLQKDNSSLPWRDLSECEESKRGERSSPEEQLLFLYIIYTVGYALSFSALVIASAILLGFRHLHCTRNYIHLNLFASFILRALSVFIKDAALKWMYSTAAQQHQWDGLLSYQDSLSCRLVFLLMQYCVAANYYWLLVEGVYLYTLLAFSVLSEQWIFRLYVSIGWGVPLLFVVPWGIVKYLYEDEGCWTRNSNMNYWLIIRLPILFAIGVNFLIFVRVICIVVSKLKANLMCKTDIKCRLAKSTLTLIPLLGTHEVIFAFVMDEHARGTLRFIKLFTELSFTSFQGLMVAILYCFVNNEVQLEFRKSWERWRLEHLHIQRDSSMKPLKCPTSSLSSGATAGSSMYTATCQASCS
method summary: cAMP assay in CHO cells stably expressing hGLP-1R
Assay type: cell-based
Design: expressed in transfected cells; host or cells: CHO cells stably transfected
assay conditions: CHO cells stably expressing hGLP-1R (Table 2), read-out: CHO cAMP stable EC50

Use the examples below as a reference point.
{"smiles text": "O=C(O)c1ccc2nc(Cc3cc(F)c(-c4cccc(OCc5ccc(Cl)cn5)n4)cc3F)n(C[C@@H]3CCO3)c2n1", "EC50": "< 15 nM"}
{"smiles text": "N#Cc1ccc(COc2nc(-c3ccc(Cc4nc5ccc(C(=O)O)c(F)c5n4C[C@@H]4CCO4)c(F)c3)ncc2F)c(F)c1", "EC50": "< 15 nM"}

Measured EC50, N#Cc1cnc(COc2nc(-c3ccc(Cc4nc5ccc(C(=O)O)nc5n4C[C@@H]4CCO4)c(F)c3)ncc2F)c(F)c1 : 15 to 150 nM

Measured EC50, O=C(O)c1ccc2nc(Cc3ccc(-c4cccc(OCc5ccc(Cl)cc5F)n4)cc3F)n(C[C@@H]3CCO3)c2n1 : 15 to 150 nM

Measured EC50, O=C(O)c1ccc2nc(Cc3ccc(-c4ncc(F)c(OCc5ncc(Cl)cc5F)n4)cc3F)n(C[C@@H]3CCO3)c2n1 : 15 to 150 nM

Measured EC50, O=C(O)c1ccc2nc(Cc3cc(F)c(-c4cccc(OCc5ccc(F)cn5)n4)cc3F)n(C[C@@H]3CCO3)c2n1 : 15 to 150 nM

Measured EC50, N#Cc1ccc(COc2nc(-c3ccc(Cc4nc5ccc(C(=O)O)nc5n4C[C@@H]4CCO4)c(F)c3)ncc2F)c(F)c1 : < 15 nM

// provenance: patent US10954221B2
